Taken from ChEMBL document CHEMBL2417413.

# Test system: 8305C
# Assay info: Cytotoxicity against human 8305C cells assessed as reduction in cell viability after 24 hrs by MTT assay
# Format: functional, cell-based
For each entry below, report its IC50 value.
Numbers only, in µM.

O=C1CN2/C(=N/c3ccc4ccc5cccc6ccc3c4c56)OCC2CN1C1CCCCC1 (centres undefined)	68.5
O=C1CN2/C(=N/c3cccc4ccccc34)OCC2CN1C1CCCCC1 (centres undefined)	61
O=C1CN2/C(=N/c3ccccc3)OCC2CN1C1CCCCC1 (centres undefined)	70.7

# ---- query compound ----
*Q* Form field - read-out: IC50; system: 8305C; submitted item: O=C1CN2/C(=N/c3ccc4ccc5cccc6ccc3c4c56)OCC2CN1c1ccccc1 (centres undefined)
*A* 80.3
